Source listed as patent US20230132973A1.

Tested on: Normal African Green Monkey Kidney Epithelial (Vero) cells
TEST METHOD NOTES: MTT cell proliferation (cytotoxicity) assay, Vero cells
Assay type: cell-based
RUN CONDITIONS: MTT
METRIC: CC50

INSERT INTO results (molecule, metric, assay_value) VALUES
  ('COc1cc2c(cc1OC)C1(NCC2)C(=O)Nc2ccc(Cl)cc21 (stereo not shown)', 'CC50', '> 100 µM');

* * *

System: multidrug resistant strain Dd2
TEST METHOD NOTES: SYBR green I-based parasite growth inhibition assay, Dd2 strain
Type: cell-based, Plasmodium falciparum
RUN CONDITIONS: Pf Dd2, 0.078 μM to 10 μM
pEC50: −log10 of the molar value.
METRIC: pEC50

INSERT INTO assay_data (compound, metric, assay_value) VALUES
  ('COc1cc2c(cc1OC)C1(NCC2)C(=O)Nc2ccc(Cl)cc21 (stereo not shown) [Compound 8b]', 'pEC50', 5.76);
